# Tested target: hNTS1R (Homo sapiens, UniProt P30989)
# Construct: at hNTS1R expressing intact human HT-29 colon carcinoma cells; endogenous in cells; host or cells: HT-29 human colon carcinoma cells (intact)
# Sequence (P30989 whole entry): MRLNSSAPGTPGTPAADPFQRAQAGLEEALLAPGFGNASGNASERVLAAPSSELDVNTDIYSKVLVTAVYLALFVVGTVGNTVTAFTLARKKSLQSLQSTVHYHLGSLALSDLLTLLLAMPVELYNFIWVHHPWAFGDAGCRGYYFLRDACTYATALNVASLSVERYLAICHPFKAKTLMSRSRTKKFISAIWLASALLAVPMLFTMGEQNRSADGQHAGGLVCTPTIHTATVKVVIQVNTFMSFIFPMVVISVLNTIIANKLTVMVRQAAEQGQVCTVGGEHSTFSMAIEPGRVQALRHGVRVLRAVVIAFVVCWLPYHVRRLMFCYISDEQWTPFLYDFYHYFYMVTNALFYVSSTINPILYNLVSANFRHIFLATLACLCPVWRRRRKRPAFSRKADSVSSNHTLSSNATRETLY
# Procedure summary: Radioligand competition binding with [^3H]UR-MK300 at intact HT-29 cells
# Cond: [^3H]UR-MK300 (Kd = […], c = 1 nM), 23 °C, mean, read-out: Ki (converted)
Property label: Ki

# count of solved cases: 2
>>> result("CC(C)C[C@H](NC(=O)[C@@H](NC(=O)[C@H](Cc1ccc(O)cc1)NC(=O)[C@@H]1CCCN1C(=O)[C@H](CCCNC(=N)N)NC(=O)[C@@H](N)CCCNC(=N)NC(=O)NCCCCN)C(C)(C)C)C(=O)O")
"2.2 nM"
>>> result("CN[C@@H](CCCNC(=N)N)C(=O)N[C@@H](CCCNC(=N)NC(=O)NCCCCc1cn([C@@H]2O[C@H](CF)[C@@H](O)[C@H](O)[C@H]2O)nn1)C(=O)N1CCC[C@H]1C(=O)N[C@@H](Cc1ccc(O)cc1)C(=O)N[C@H](C(=O)N[C@@H](CC(C)C)C(=O)O)C(C)(C)C")
"6.2 nM"

The molecule identified as C#CCCCCNC(=O)NC(=N)NCCC[C@H](NC(=O)[C@H](CCCNC(=N)N)NC)C(=O)N1CCC[C@H]1C(=O)N[C@@H](Cc1ccc(O)cc1)C(=O)N[C@H](C(=O)N[C@@H](CC(C)C)C(=O)O)C(C)(C)C registered its Ki at 7.7 nM

Noted for CN[C@@H](CCCNC(=N)NC(=O)NCCCCN)C(=O)N[C@@H](CCCNC(=N)N)C(=O)N1CCC[C@H]1C(=O)N[C@@H](Cc1ccc(O)cc1)C(=O)N[C@H](C(=O)N[C@@H](CC(C)C)C(=O)O)C(C)(C)C : its Ki reads 2.8 nM

The molecule listed as CC(C)C[C@H](NC(=O)[C@@H](NC(=O)[C@H](Cc1ccc(O)cc1)NC(=O)[C@@H]1CCCN1C(=O)[C@H](CCCNC(=N)N)NC(=O)[C@@H](N)CCCNC(=N)NC(=O)NCCCCc1cn([C@@H]2O[C@H](CF)[C@@H](O)[C@H](O)[C@H]2O)nn1)C(C)(C)C)C(=O)O has a reported Ki of 4.6 nM

// Ki lookup, molecule = C#CCCC(=O)NCCCCNC(=O)NC(=N)NCCC[C@H](N)C(=O)N[C@@H](CCCNC(=N)N)C(=O)N1CCC[C@H]1C(=O)N[C@@H](Cc1ccc(O)cc1)C(=O)N[C@H](C(=O)N[C@@H](CC(C)C)C(=O)O)C(C)(C)C , result: 4.4 nM

// field: Ki; key: CC(C)C[C@H](NC(=O)[C@@H](NC(=O)[C@H](Cc1ccc(O)cc1)NC(=O)[C@@H]1CCCN1C(=O)[C@H](CCCNC(=N)N)NC(=O)[C@@H](N)CCCNC(=N)NC(=O)NCCCCNC(=O)CCc1cn([C@@H]2O[C@H](CF)[C@@H](O)[C@H](O)[C@H]2O)nn1)C(C)(C)C)C(=O)O ; value = 2.5 nM

Sample C#CCCCCNC(=O)NC(=N)NCCC[C@H](N)C(=O)N[C@@H](CCCNC(=N)N)C(=O)N1CCC[C@H]1C(=O)N[C@@H](Cc1ccc(O)cc1)C(=O)N[C@H](C(=O)N[C@@H](CC(C)C)C(=O)O)C(C)(C)C ; Ki observed: 4.6 nM

====

# Procedure summary: In vitro stability in human plasma/PBS (1:2 v/v) at 37 °C
# Assay type: in vitro ADME
# Cond: human blood plasma/PBS (1:2 v/v), pH 7.4, 48 h, read-out: % intact peptide in human plasma after the given incubation time
Property label: remaining at 48 h, 100 µM (%)
Express it in %; write the number only.

Solved entries (count: 2):
>>> numeric_readout("CN[C@@H](CCCNC(=N)NC(=O)NCCCCNC(=O)CCc1cn([C@@H]2O[C@H](CF)[C@@H](O)[C@H](O)[C@H]2O)nn1)C(=O)N[C@@H](CCCNC(=N)N)C(=O)N1CCC[C@H]1C(=O)N[C@@H](Cc1ccc(O)cc1)C(=O)N[C@H](C(=O)N[C@@H](CC(C)C)C(=O)O)C(C)(C)C")
99
>>> numeric_readout("CN[C@@H](CCCNC(=N)N)C(=O)N[C@@H](CCCNC(=N)NC(=O)NCCCCc1cn([C@@H]2O[C@H](CF)[C@@H](O)[C@H](O)[C@H]2O)nn1)C(=O)N1CCC[C@H]1C(=O)N[C@@H](Cc1ccc(O)cc1)C(=O)N[C@H](C(=O)N[C@@H](CC(C)C)C(=O)O)C(C)(C)C")
96

Now turn to the next compound.
Entry C#CCCC(=O)NCCCCNC(=O)NC(=N)NCCC[C@H](NC)C(=O)N[C@@H](CCCNC(=N)N)C(=O)N1CCC[C@H]1C(=O)N[C@@H](Cc1ccc(O)cc1)C(=O)N[C@H](C(=O)N[C@@H](CC(C)C)C(=O)O)C(C)(C)C — recorded remaining at 48 h, 100 µM = 99

====

# Procedure summary: In vitro stability in mouse plasma/PBS (1:2 v/v) at 37 °C
# Format: in vitro ADME
# Cond: pH 7.4, 6 h, read-out: % intact peptide in mouse plasma after the given incubation time
Property label: remaining at 6 h, 100 µM

Briefly, remaining at 6 h, 100 µM measured for CN[C@@H](CCCNC(=N)NC(=O)NCCCCNC(=O)CCc1cn([C@@H]2O[C@H](CF)[C@@H](O)[C@H](O)[C@H]2O)nn1)C(=O)N[C@@H](CCCNC(=N)N)C(=O)N1CCC[C@H]1C(=O)N[C@@H](Cc1ccc(O)cc1)C(=O)N[C@H](C(=O)N[C@@H](CC(C)C)C(=O)O)C(C)(C)C [Compound 21] : > 99%

====

# Procedure summary: In vitro stability in human plasma/PBS (1:2 v/v) at 37 °C
# Assay type: in vitro ADME
# Cond: human blood plasma/PBS (1:2 v/v), pH 7.4, 24 h, read-out: % intact peptide in human plasma after the given incubation time
Property label: remaining at 24 h, 100 µM

Observe how each entry below is paired with its result.
>>> result("CN[C@@H](CCCNC(=N)N)C(=O)N[C@@H](CCCNC(=N)NC(=O)NCCCCc1cn([C@@H]2O[C@H](CF)[C@@H](O)[C@H](O)[C@H]2O)nn1)C(=O)N1CCC[C@H]1C(=O)N[C@@H](Cc1ccc(O)cc1)C(=O)N[C@H](C(=O)N[C@@H](CC(C)C)C(=O)O)C(C)(C)C [Compound 13]")
"> 99%"
>>> result("CC(C)C[C@H](NC(=O)[C@@H](NC(=O)[C@H](Cc1ccc(O)cc1)NC(=O)[C@@H]1CCCN1C(=O)[C@H](CCCNC(=N)N)NC(=O)[C@@H](N)CCCNC(=N)NC(=O)NCCCCN)C(C)(C)C)C(=O)O [Compound 14]")
"< 1%"
>>> result("CN[C@@H](CCCNC(=N)NC(=O)NCCCCN)C(=O)N[C@@H](CCCNC(=N)N)C(=O)N1CCC[C@H]1C(=O)N[C@@H](Cc1ccc(O)cc1)C(=O)N[C@H](C(=O)N[C@@H](CC(C)C)C(=O)O)C(C)(C)C [Compound 16]")
"> 99%"

Now look at this entry.
Lookup result for CN[C@@H](CCCNC(=N)NC(=O)NCCCCNC(=O)CCc1cn([C@@H]2O[C@H](CF)[C@@H](O)[C@H](O)[C@H]2O)nn1)C(=O)N[C@@H](CCCNC(=N)N)C(=O)N1CCC[C@H]1C(=O)N[C@@H](Cc1ccc(O)cc1)C(=O)N[C@H](C(=O)N[C@@H](CC(C)C)C(=O)O)C(C)(C)C [Compound 21] ; measured remaining at 24 h, 100 µM: > 99%

====

# Procedure summary: In vitro stability in human plasma/PBS (1:2 v/v) at 37 °C
# Assay type: in vitro ADME
# Cond: human blood plasma/PBS (1:2 v/v), pH 7.4, 1 h, read-out: % intact peptide in human plasma after the given incubation time
Property label: remaining at 1 h, 100 µM (%)
Give just the numeric value; % need not be written.

The reported value for CC(C)C[C@H](NC(=O)[C@@H](NC(=O)[C@H](Cc1ccc(O)cc1)NC(=O)[C@@H]1CCCN1C(=O)[C@H](CCCNC(=N)N)NC(=O)[C@@H](N)CCCNC(=N)NC(=O)NCCCCc1cn([C@@H]2O[C@H](CF)[C@@H](O)[C@H](O)[C@H]2O)nn1)C(C)(C)C)C(=O)O [Compound 11] in terms of remaining at 1 h, 100 µM is 1.1

====

# Procedure summary: In vitro stability in human plasma/PBS (1:2 v/v) at 37 °C
# Type: in vitro ADME
# Cond: human blood plasma/PBS (1:2 v/v), pH 7.4, 2 h, read-out: % intact peptide in human plasma after the given incubation time
As shown below, each of these molecules has a reported remaining at 2 h, 100 µM value.

Reported remaining at 2 h, 100 µM of CC(C)C[C@H](NC(=O)[C@@H](NC(=O)[C@H](Cc1ccc(O)cc1)NC(=O)[C@@H]1CCCN1C(=O)[C@H](CCCNC(=N)N)NC(=O)[C@@H](N)CCCNC(=N)NC(=O)NCCCCc1cn([C@@H]2O[C@H](CF)[C@@H](O)[C@H](O)[C@H]2O)nn1)C(C)(C)C)C(=O)O : < 1%

remaining at 2 h, 100 µM in this record for CN[C@@H](CCCNC(=N)N)C(=O)N[C@@H](CCCNC(=N)NC(=O)NCCCCc1cn([C@@H]2O[C@H](CF)[C@@H](O)[C@H](O)[C@H]2O)nn1)C(=O)N1CCC[C@H]1C(=O)N[C@@H](Cc1ccc(O)cc1)C(=O)N[C@H](C(=O)N[C@@H](CC(C)C)C(=O)O)C(C)(C)C : > 99%

Reported remaining at 2 h, 100 µM ( CC(C)C[C@H](NC(=O)[C@@H](NC(=O)[C@H](Cc1ccc(O)cc1)NC(=O)[C@@H]1CCCN1C(=O)[C@H](CCCNC(=N)NC(=O)NCCCCc1cn([C@@H]2O[C@H](CF)[C@@H](O)[C@H](O)[C@H]2O)nn1)NC(=O)[C@@H](N)CCCNC(=N)N)C(C)(C)C)C(=O)O ) = < 1%
